Measured Cmax, listed per entry.
assay: Cmax in Sprague-Dawley rat at 30 ml/kg,po measured upto 24 hrs by UPLC-MS/MS analysis; assay type: ADME; set-up: time < 24 hrs, dose 30 ml/kg, route po; details: in vivo
Measured property: Cmax (µM)

>  <Molecule>
COC(=O)N[C@H](C(=O)N[C@@H](Cc1ccccc1)[C@H](CN(Cc1ccc(-c2ccccn2)cc1)NC(=O)[C@@H](NC(=O)OC)C(C)(C)C)OC(=O)OC(OC(=O)[C@@H](N)C(C)C)C(C)C)C(C)(C)C (stereo in doubt; 3s)

>  <Observed>
0.189

$$$$
>  <Molecule>
COC(=O)N[C@H](C(=O)N[C@@H](Cc1ccccc1)[C@H](CN(Cc1ccc(-c2ccccn2)cc1)NC(=O)[C@@H](NC(=O)OC)C(C)(C)C)OC(=O)OC(OC(=O)[C@H](C(C)C)N(C)C)C(C)C)C(C)(C)C (stereo in doubt; 5h)

>  <Observed>
3.58

$$$$
>  <Molecule>
COC(=O)N[C@H](C(=O)N[C@@H](Cc1ccccc1)[C@H](CN(Cc1ccc(-c2ccccn2)cc1)NC(=O)[C@@H](NC(=O)OC)C(C)(C)C)OC(=O)OC(OC(=O)[C@@H](NC(=O)[C@H](N)C(C)C)C(C)C)C(C)C)C(C)(C)C (stereo in doubt; 6h)

>  <Observed>
4.13

$$$$

###

assay: AUClast in Sprague-Dawley rat at 3 ml/kg,po measured upto 24 hrs by UPLC-MS/MS analysis; format: ADME; parameters: time < 24 hrs, dose 3 ml/kg, route po; conditions: Sprague-Dawley, in vivo, 3 ml/kg
Measured log10 AUC(0-t) at 24 h, listed per entry.
Measured property: log10 AUC(0-t) at 24 h (log10 of the value in µM·h)

>  <Compound>
COC(=O)N[C@H](C(=O)N[C@@H](Cc1ccccc1)[C@H](CN(Cc1ccc(-c2ccccn2)cc1)NC(=O)[C@@H](NC(=O)OC)C(C)(C)C)OC(=O)OC(OC(=O)[C@@H](N)Cc1ccccc1)C(C)C)C(C)(C)C (stereo in doubt; 3w)

>  <log10 AUC(0-t) at 24 h>
-1.74

$$$$
>  <Compound>
COC(=O)N[C@H](C(=O)N[C@@H](Cc1ccccc1)[C@H](CN(Cc1ccc(-c2ccccn2)cc1)NC(=O)[C@@H](NC(=O)OC)C(C)(C)C)OC(=O)OC(OC(=O)[C@@H](N)CC(C)C)C(C)C)C(C)(C)C (stereo in doubt; 3u)

>  <log10 AUC(0-t) at 24 h>
-0.98

$$$$
>  <Compound>
COC(=O)N[C@H](C(=O)N[C@@H](Cc1ccccc1)[C@H](CN(Cc1ccc(-c2ccccn2)cc1)NC(=O)[C@@H](NC(=O)OC)C(C)(C)C)OC(=O)OC(OC(=O)[C@@H](N)C(C)C)C(C)C)C(C)(C)C (stereo in doubt; 3s)

>  <log10 AUC(0-t) at 24 h>
-1.36

$$$$
>  <Compound>
COC(=O)N[C@H](C(=O)N[C@@H](Cc1ccccc1)[C@H](CN(Cc1ccc(-c2ccccn2)cc1)NC(=O)[C@@H](NC(=O)OC)C(C)(C)C)OC(=O)OC(OC(=O)C[C@H](N)Cc1cc(F)c(F)cc1F)C(C)C)C(C)(C)C (stereo in doubt; 3ac)

>  <log10 AUC(0-t) at 24 h>
0.90

$$$$
>  <Compound>
COC(=O)N[C@H](C(=O)N[C@@H](Cc1ccccc1)[C@H](CN(Cc1ccc(-c2ccccn2)cc1)NC(=O)[C@@H](NC(=O)OC)C(C)(C)C)OC(=O)OC(OC(=O)CCN)C(C)C)C(C)(C)C (stereo in doubt; 3z)

>  <log10 AUC(0-t) at 24 h>
-2.15

$$$$
>  <Compound>
COC(=O)N[C@H](C(=O)N[C@@H](Cc1ccccc1)[C@H](CN(Cc1ccc(-c2ccccn2)cc1)NC(=O)[C@@H](NC(=O)OC)C(C)(C)C)OC(=O)OC(OC(=O)[C@@H](NC(=O)[C@H](N)C(C)C)C(C)C)C(C)C)C(C)(C)C (stereo in doubt; 6h)

>  <log10 AUC(0-t) at 24 h>
1.60

$$$$

Sourced from ChEMBL document CHEMBL5137093
